Molecular target: T1, P4-AA
T1 chain: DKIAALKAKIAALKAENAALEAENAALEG
Assay: two-hybrid library CCmax;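 further: natural log of median RNA to DNA barcode read ratio; higher means stronger binding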
measured-property: interaction score
Please respond with just the number, no unit label.

Lab note: measured interaction score of DKIAALKAKIAALKAENAALEAENAALEG [P4-AA] was -2.32

Lab note: measured interaction score of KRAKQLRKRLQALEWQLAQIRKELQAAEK [4H_APH3] was -2.3

Lab note: measured interaction score of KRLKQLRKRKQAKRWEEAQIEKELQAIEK [4H_APH2] was -1.76

Lab note: measured interaction score of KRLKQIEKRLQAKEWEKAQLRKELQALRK [4H_APH4] was -2.31
